test system: Peripheral Blood Mononuclear Cells (PBMCs); conditions: human, 7 days
measurement_name: CC50

[[record]]
entry_smiles = "Cc1cccc(C)c1OCC(=O)N[C@@H](Cc1ccccc1)[C@@H](O)C[C@H](Cc1ccccc1)NC(=O)[C@H](C(C)C)N1CCCNC1=O"
reported_measurement = "> 1000 nM"


----------
system: A/Udorn/72 (H3N2); assay: microbe, parasite or virus in culture; format: cell-based; settings: Influenza A virus, H3N2, HEK-293T; read-out: EC50
pEC50: −log10 of the molar value.
measurement_name: pEC50

[[record]]
entry_smiles = "NCC(=O)Nc1ccc(-n2nc(C(F)(F)F)cc2-c2ccc3c(ccc4ccccc43)c2)cc1"
reported_measurement = 6.48


----------
test: in vitro; details: African green monkey, CC50 (Neutral Red)
measurement_name: CC50 (µg/mL)

[[record]]
compound = "NCC(=O)Nc1ccc(-n2nc(C(F)(F)F)cc2-c2ccc3c(ccc4ccccc43)c2)cc1 [AR-12]"
measurement_name = "CC50"
u = "µg/mL"
reported_measurement = 1.8


----------
Measured IC90 accompanies every entry in the list below.
test system: HIV-1 isolate MDR807; assay: microbe, parasite or virus in culture; conditions: Human immunodeficiency virus 1, PBMC, read-out: IC50
measurement_name: IC90 (µM)

[[record]]
entry_smiles = "NCC(=O)Nc1ccc(-n2nc(C(F)(F)F)cc2-c2ccc3c(ccc4ccccc43)c2)cc1"
bound_operator = "="
reported_measurement = 2.13

[[record]]
entry_smiles = "Cc1nnc(C(=O)NC(C)(C)c2nc(C(=O)NCc3ccc(F)cc3)c(O)c(=O)n2C)o1"
bound_operator = "="
reported_measurement = 0.00216

[[record]]
entry_smiles = "CC(C)c1nc(CN(C)C(=O)N[C@H](C(=O)N[C@@H](Cc2ccccc2)C[C@H](O)[C@H](Cc2ccccc2)NC(=O)OCc2cncs2)C(C)C)cs1"
bound_operator = "="
reported_measurement = 5.94

[[record]]
entry_smiles = "Cc1cn([C@H]2C[C@H](N=[N+]=[N-])[C@@H](CO)O2)c(=O)[nH]c1=O"
bound_operator = ">"
reported_measurement = 1


----------
assay: in vitro; conditions: human
measurement_name: CC50

[[record]]
entry_smiles = "Cc1nnc(C(=O)NC(C)(C)c2nc(C(=O)NCc3ccc(F)cc3)c(O)c(=O)n2C)o1"
measurement_name = "CC50"
reported_measurement = "> 100 nM"

[[record]]
entry_smiles = "COc1cc2c(cc1Cc1cccc(Cl)c1F)c(=O)c(C(=O)O)cn2[C@H](CO)C(C)C"
measurement_name = "CC50"
reported_measurement = "> 1000 nM"

[[record]]
entry_smiles = "CC(C)Nc1cccnc1N1CCN(C(=O)c2cc3cc(NS(C)(=O)=O)ccc3[nH]2)CC1"
measurement_name = "CC50"
reported_measurement = "> 2000 nM"

[[record]]
entry_smiles = "Cc1cn([C@H]2C[C@H](N=[N+]=[N-])[C@@H](CO)O2)c(=O)[nH]c1=O"
measurement_name = "CC50"
reported_measurement = "> 1000 nM"

[[record]]
entry_smiles = "Cc1ccnc2c1NC(=O)c1cccnc1N2C1CC1"
measurement_name = "CC50"
reported_measurement = "> 10000 nM"


----------
test: in vitro; settings: African green monkey, CC50 (Neutral Red)
measurement_name: CC50 (µg/mL)

[[record]]
entry_smiles = "NCC(=O)Nc1ccc(-n2nc(C(F)(F)F)cc2-c2ccc3c(ccc4ccccc43)c2)cc1"
measurement_name = "CC50"
u = "µg/mL"
reported_measurement = 1.3

